All values here come from patent US5914341A.

# assayedSystem: human FPTase (Homo sapiens, UniProt P49354+P49356)
# testDetails: In vitro inhibition of ras farnesyl transferase (human FPTase assay)
# conditionDescription: [3H]-FPP incorporation, 100 nM Ras-CVIM substrate, 30 min; read-out: IC50, inhibitory activity against human FPTase
Counter-ions that a name gives are not always drawn.
Examples of compounds with documented IC50 follow.

q: Tell me reported IC50 for CCCCCN(C(=O)OCc1cncn1Cc1ccc(C#N)cc1)c1cccc(Cl)c1 [Example 2, hydrochloride] , tested with human FPTase (Homo sapiens, UniProt P49354+P49356).
a: < 30 µM

q: Also need N#Cc1ccc(Cn2cncc2COC(=O)Nc2cccc(Cl)c2)cc1 [Example 1, hydrochloride] , thanks.
a: < 30 µM
